# Tested on: maize anthers
# test_summary: Ectopic archesporial (AR) cell formation after reducing or oxidizing treatments
# Format: in vivo
# setup_conditions: msca1 genotype; number of anthers
experimental_endpoint: # having ectopic AR
Answer as a number with no unit attached.

Under maize anthers: # having ectopic AR value of O=O ?
0

Try this compound too: N#N
0

Now the compound N=C(NCCC[C@H](N)C(=O)O)N[N+](=O)[O-]
0

One more compound: OO [H2O2, hydrogen peroxide]
0

Next: [I-].[K+]
6

Thanks! And CC1(C)N([O])C(c2ccccc2)=[N+]([O-])C1(C)C ?
0

###

Give ectopic AR location by EPI for every item shown.
# Tested on: maize anthers
# test_summary: Ectopic archesporial (AR) cell formation after reducing or oxidizing treatments
# Type: in vivo
# setup_conditions: mac1 genotype; superficial (near or on the EPI)
// response body must contain only the number

For the molecule OO [H2O2, hydrogen peroxide] , what ectopic AR location by EPI is on record?
0

Another molecule to look at: N=C(NCCC[C@H](N)C(=O)O)N[N+](=O)[O-]
0

Would you kindly repeat that for N#N ?
5

Now the molecule [I-].[K+]
0

Then this molecule: O=O
0

Moving on to the next molecule: CC1(C)N([O])C(c2ccccc2)=[N+]([O-])C1(C)C
0

###

# Tested on: maize anthers
# test_summary: Ectopic archesporial (AR) cell formation after reducing or oxidizing treatments
# Format: in vivo
# setup_conditions: msca1 genotype; superficial (near or on the EPI)
Consider the following compounds; for each one, report its ectopic AR location by EPI.
Provide a numeric answer; units are not to be included.

Please report the recorded ectopic AR location by EPI for O=O .
0

Try this compound too: CC1(C)N([O])C(c2ccccc2)=[N+]([O-])C1(C)C
0

// same read-out, input: OO [H2O2, hydrogen peroxide]
0

Try N#N next.
0

How about this compound: N=C(NCCC[C@H](N)C(=O)O)N[N+](=O)[O-]
0

Try [I-].[K+] next.
5

###

# Tested on: maize anthers
# test_summary: Ectopic archesporial (AR) cell formation after reducing or oxidizing treatments
# Assay type: in vivo
# setup_conditions: msca1
experimental_endpoint: AR specification in msca1 anthers

* OO [H2O2, hydrogen peroxide] | lacked AR
* CC1(C)N([O])C(c2ccccc2)=[N+]([O-])C1(C)C | lacked AR
* N=C(NCCC[C@H](N)C(=O)O)N[N+](=O)[O-] | lacked AR

From: patent US9516824B2
